assay: RNA encapsulation efficiency of LNPs by Quant-IT Ribogreen; type: physicochemical; settings: LNPs with luciferase mRNA; ionizable lipid:non-cationic lipid:sterol:PEG-modified lipid 50:10:38.5:1.5; percentage of RNA entrapped in the LNP
RECORDED_ENDPOINT: Encaps. efficiency (%)

CCCCCCCC/C=C\CCCCCCCC(=O)NC(CCSCC(=O)OCCCCCCCCCCCCC)C(=O)NCCCN1CCOCC1 (centres unmarked) [VC-LC-0338] : 62.80

1. CCCCCCCCC(CCCCCC)C(=O)NC(CCSCCC(=O)OCC(CC)CCCC)C(=O)NCCCn1ccnc1 (centres unmarked) [VC-LC-0259]
2. CCCCCCCCCCC(CCCCCCCC)C(=O)NC(CCSCCC(=O)OCC(CC)CCCC)C(=O)NCC1CCN(C)CC1 (centres unmarked) [VC-LC-0510]
*Q* Form: Entry with minimum Encaps. efficiency (%) (choose one): 1 / 2 Let me know the label of the one you choose.
*A* 1

I. CCCCCCCCC(CCCCCC)C(=O)NC(CCSCCC(=O)OCCCCCC(C)C)C(=O)NCC1CCN(C)CC1 (centres unmarked) [VC-LC-0498]
II. CCCCCCCCC(CCCCCC)COC(=O)C(CCSCCC(=O)OCC(CC)CCCC)C(=O)NCCCN1CCOCC1 (centres unmarked) [VC-LC-0608]
III. CCCCCCCCC(CCCCCC)C(=O)NC(CCSCCC(=O)OCCCCCC)C(=O)NCCCn1ccnc1 (centres unmarked) [VC-LC-0268]
*Q* Sort (3 molecules) by Encaps. efficiency (%): min first. Put the labels in the order asked and list them.
*A* III, II, I

1. CCCCCCCCCCCCOC(=O)CCSCCC(NC(=O)C(CCCCCC)CCCCCCCC)C(=O)NCCN1CCN(C)CC1 (centres unmarked) [VC-LC-0182]
2. CCCCCCCCC(CCCCCCCC)OC(=O)C(CSCCC(=O)OCC(CC)CCCC)CC(=O)NCCCn1ccnc1 (centres unmarked) [VC-LC-0297]
*Q* Form: Entry with minimum Encaps. efficiency (%) (choose one): 1 / 2 Let me know the label of the one you choose.
*A* 2
(2: 46.94%, 1: 91.18%)

a. CCCCCCCCC(CCCCCC)C(=O)NC(CCSCCC(=O)OCCCCCCCC(C)C)C(=O)NCCCN1CCCC1 (centres unmarked) [VC-LC-0243]
b. CCCCCCCC#CCOC(=O)CCSCCC(NC(=O)C(CCCCCC)CCCCCCCC)C(=O)NC1CCN(C)CC1 (centres unmarked) [VC-LC-0429]
*Q* Form: Entry with minimum Encaps. efficiency (%) (choose one): a / b Let me know the label of the one you choose.
*A* b
(b: 46.96%, a: 93.35%)

P. CCCCCCCCC(CCCCCC)C(=O)NC(CCSCCC(=O)OCC(CC)CCCC)C(=O)NCCCN1CCOCC1 (centres unmarked) [VC-LC-0166]
Q. CCCCCCCCCCC(CCCCCCCC)C(=O)NC(CCSCCC(=O)OCC(CCCCCC)CCCCCCCC)C(=O)NCC1CCN(C)CC1 (centres unmarked) [VC-LC-0508]
*Q* Form: Entry with minimum Encaps. efficiency (%) (choose one): P / Q Let me know the label of the one you choose.
*A* P
(P: 42.53%, Q: 91.49%)

P. CCCCCCCC/C=C\CCCCCCCCOC(=O)CCSCCC(NC(=O)CCCCCCCCCCCCCCCCC)C(=O)NC1CCN(C)CC1 (centres unmarked) [VC-LC-0438]
Q. CCCCCCCCC(CCCCCCCC)OC(=O)C(CSCCC(=O)OCCCCCC)CC(=O)NCCCn1ccnc1 (centres unmarked) [VC-LC-0306]
*Q* Select the item with the higher value of Encaps. efficiency (%) from the options P and Q listed. Let me know the label of the one you choose.
*A* P
(P: 95.26%, Q: 45.62%)

P. CCCC#CCCOC(=O)CCSCCC(NC(=O)C(CCCCCC)CCCCCCCC)C(=O)NC1CCN(C)CC1 (centres unmarked) [VC-LC-0432]
Q. CCCCCCCCOC(=O)CCSCC(CC(=O)NC1CCN(C)CC1)C(=O)OCC(CCCCCC)CCCCCCCC (centres unmarked) [VC-LC-0535]
*Q* Form: Entry with minimum Encaps. efficiency (%) (choose one): P / Q Let me know the label of the one you choose.
*A* P

I. CCCCCCCCCCCCCOC(=O)CCSCCC(NC(=O)C(CCCCCC)CCCCCCCC)C(=O)NCCCN(C)C (centres unmarked) [VC-LC-0099]
II. CCCCCCCCC(CCCCCC)COC(=O)CCSCCC(NC(=O)C(CCCCCC)CCCCCCCC)C(=O)NC1CCN(C)CC1 (centres unmarked) [VC-LC-0431]
*Q* Form: Entry with minimum Encaps. efficiency (%) (choose one): I / II Let me know the label of the one you choose.
*A* II
(II: 60.4%, I: 98.48%)

Provenance of the data: patent EP4371976B1
